- Assay procedure: chemical genetic growth profiling, strain panel (AID 1159580);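 note: tested at 20 µM; growth read once vehicle control cultures reached saturation at 30 °C; 1 = growth at the plate median or of vehicle wells; lower values mean less growth of the strain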
- Details: S. cerevisiae deletion strains, growth OD, locus YPR135W, strain CTF4, hits give low values
About 2,000 (36%) of roughly 5,500 compounds were called active. Roughly 18% stayed inconclusive and do not appear here. Some of the results follow.
Property: normalized growth

>>> quantitative_readout("OC(CSc1ccccc1)CN1CCN(c2ccc(C(F)(F)F)cn2)CC1 (stereo not drawn)")
0.442
>>> quantitative_readout("CCOC(=O)c1cnc2nc(SC)nn2c1N")
0.894
>>> quantitative_readout("Cc1ccc(N=Cc2cccs2)cc1Cl")
1.01
>>> quantitative_readout("Cc1ccc(OCc2nnc(SCC(=O)c3ccc(F)cc3)n2-c2ccccc2)c2c1CCC2")
0.867
>>> quantitative_readout("CC(=O)C1C(=O)CC(c2ccc(Cl)cc2)CC1=O (stereo not drawn)")
0.718
>>> quantitative_readout("O=C1c2ccccc2C(=O)C1c1ccccc1")
0.934
>>> quantitative_readout("CC(C)(C)c1ccc(CSc2nc(N)cc(=O)[nH]2)cc1")
0.949
>>> quantitative_readout("O=[N+]([O-])c1ccc(-c2nn[nH]n2)cc1")
0.967
